Numbers sourced from PubChem BioAssay.

Listing of entries alongside the reported growth inhibition.
assay: inhibition of 3D7 malaria parasite growth – strain 3D7 (AID 2306);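 also: 0% = DMSO wells and 100% = chloroquine plus artemisinin control wells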; details: P. falciparum 3D7 erythrocytic growth, LDH absorbance, 72 h; at 2 µM; active compounds read high
Active and inactive are the calls of the source. No rule for the calls is given here.
value type: growth inhibition

{"smi": "COc1cc(CNC2Cc3ccccc3C2)ccc1Oc1ccc2nc[nH]c2c1", "endpoint value": "98% (active)"}
{"smi": "Cc1cc(NC(=O)Nc2ccc(N(C)C)cc2)c2cc(Cl)ccc2n1", "endpoint value": "100% (active)"}
{"smi": "CNc1ccc(CNCc2ccc(-c3ccc(-c4nc5ccc(C(F)(F)F)cc5[nH]4)cc3)cc2)cc1", "endpoint value": "101% (active)"}
{"smi": "CCN(CC)C(=O)c1cnc(-c2ccccc2)nc1Oc1cccc(Cl)c1", "endpoint value": "92% (active)"}
{"smi": "CN1CCN(c2ccnc3ccc(NC(=O)Nc4ccc(Br)cc4)cc23)CC1", "endpoint value": "101% (active)"}
{"smi": "O=C(NC1CCN(Cc2ccccc2)CC1)c1cccc(Nc2nc(-c3ccccc3)cs2)c1", "endpoint value": "84% (active)"}
{"smi": "CCCNC(=O)Nc1cc2cc(-c3cccc(CN4CCCCC4)c3)ccc2n2c(C)nnc12", "endpoint value": "100% (active)"}
{"smi": "CCOC(=O)NC1=NC(C)(C)N(OCCCOc2cc(Cl)c(Cl)cc2Cl)C(NC(=O)OCC)=N1", "endpoint value": "91% (active)"}
{"smi": "CCOc1c(OC)ccc2c1CCN(CCN1CCC(CNC(=O)c3ccc(-c4ccc(C(F)(F)F)cc4)cc3)CC1)C2", "endpoint value": "102% (active)"}
